# Tested on: ducksalad (Heteranthera limosa)
# assay.remarks: Test B flooded paddy test, visual rating
# Format: in vivo
# measurement.conditions: Flood, 250 g ai/ha, applied to paddy water, rated after 13 to 15 d
reported.endpoint: Ducksalad plant response rating (0 to 100 scale, 0 is no effect, 100 is complete control)
Note: the reply should be a number with no unit written.

Reported Ducksalad plant response rating (0 to 100 scale, 0 is no effect, 100 is complete control) of "Cc1nn(C)c(=O)c(-c2c(C)sc3ncccc23)c1OC(=O)C1CC1" : 0

Ducksalad plant response rating (0 to 100 scale, 0 is no effect, 100 is complete control) measured on "Cc1cc2c(-c3c(O)c(C)nn(C)c3=O)c(C)ccc2s1" = 0

Reported Ducksalad plant response rating (0 to 100 scale, 0 is no effect, 100 is complete control) of "Cc1cc2c(Cl)ccc(-c3c(O)c(C)nn(C)c3=O)c2o1" : 40

compound "CCC(=O)Oc1c(C)nn(C)c(=O)c1-c1c(Br)ccc2c1cnn2C" , Ducksalad plant response rating (0 to 100 scale, 0 is no effect, 100 is complete control) observed: 0

The recorded Ducksalad plant response rating (0 to 100 scale, 0 is no effect, 100 is complete control) for entry "CCC(=O)Oc1c(C)nn(C)c(=O)c1-c1ccc(Cl)c2oc(C)cc12" equals 0

Measured values drawn from patent US10750743B2 for this set.
